test system: HCC-2998 colon; test: NCI-60 one-dose screen, 48 h (100 = growth as untreated, 0 = no growth, -100 = all killed); conditions: 10 µM
This is part of a sample that, as a whole, favours compounds with a hit. Of some 83,000 tested, about 20% had one in any assay.
Below, each of the molecules is paired with its reported growth value.
Unit % implied. Number only.

Illustrative cases are given below, each with its answer.
molecule="COc1cc2c3cc1Oc1c(OC)c(OC)cc4c1C(Cc1ccc(O)c(c1)Oc1ccc(cc1)CC3N(C)CC2)N(C)CC4 (stereo not drawn)" unit_label=% test_value=-72.7
molecule=CN(C)c1ccc2nc3ccc(=N)cc-3sc2c1 unit_label=% test_value=67.4
molecule=NCCC(=O)c1ccc(Cl)cc1 unit_label=% test_value=97.6
molecule=CCCCNC1(C#N)CCN(Cc2ccccc2)CC1 unit_label=% test_value=86.9

// query Bench note: what growth did `O=C(O)C(Cc1ccccc1)C(=O)O` show?
// result 106

// query Bench note: what growth did `COc1ccccc1NC(=O)c1cc2cc(Br)ccc2cc1O` show?
// result 20.1

// query Bench note: what growth did CC1(C(=O)O)NC(C(=O)O)Cc2c1[nH]c1ccccc21 (stereo not drawn) show?
// result 104

// query Bench note: what growth did `N=c1c(C(=O)OCc2ccccc2)ncc(CCl)n1O` show?
// result 104

// query Bench note: what growth did `CN(C)CCC(=O)c1ccc(O)cc1` show?
// result 104

// query Bench note: what growth did `O=C1C[C@H](c2ccccc2)[C@H](c2ccccc2)C1` show?
// result 104

// query Bench note: what growth did `COc1ccc(C)cc1OC` show?
// result 100

// query Bench note: what growth did `O=C(O)/C=C/c1ccc2c(c1)CCC2` show?
// result 108

// query Bench note: what growth did `O=[N+]([O-])c1cccc(C(F)(F)F)c1` show?
// result 103

----------
test system: NCI-H226 lung; test: NCI-60 one-dose screen, 48 h (100 = growth as untreated, 0 = no growth, -100 = all killed); settings: 10 µM
This is part of a sample that, as a whole, favours compounds with a hit. Of some 83,000 tested, about 20% had one in any assay.
Property: growth (%)
Unit % implied. Number only.

Illustrative cases are given below, each with its answer.
compound=CCOC(=O)C1=C(Nc2ccc(Br)cc2)C(=O)N(CC)C1 test_value=86.3
compound="C#CC(C)(O)c1ccc(Cl)cc1 (stereo not drawn)" test_value=78.2
compound=O=C1C=C(Nc2ccc([N+](=O)[O-])cc2)c2ccccc2C1=O test_value=77.6

// query What growth appears in the records for this compound with NCI-H226 lung? `COC(=O)c1ccc(NC(=O)CCl)cc1`
// result 118

// query What growth appears in the records for this compound with NCI-H226 lung? `CC(=O)Cc1cc(-c2cc(CC(C)=O)[nH]n2)n[nH]1`
// result 99.3

// query What growth appears in the records for this compound with NCI-H226 lung? `S=c1nn[nH]c2ccccc12`
// result 93.8

// query What growth appears in the records for this compound with NCI-H226 lung? `COC(=O)Nc1cccc(Cl)c1OC`
// result 96.5

// query What growth appears in the records for this compound with NCI-H226 lung? `COc1ccc2c(NCCCCCCCCNc3c4ccccc4nc4cc(OC)ccc34)c3ccccc3nc2c1`
// result -65.3

// query What growth appears in the records for this compound with NCI-H226 lung? CCC(C)(C)C1CCC(O)CC1 (stereo not drawn)
// result 103

// query What growth appears in the records for this compound with NCI-H226 lung? `CCOC(=O)c1coc(C(=O)OCC)c1C(=O)OCC`
// result 111

// query What growth appears in the records for this compound with NCI-H226 lung? `CC(C)(O)C#CC#CC(C)(C)O`
// result 79.4

// query What growth appears in the records for this compound with NCI-H226 lung? CC1CCC2C(C)(C)C3CC12CC1OC13C (stereo not drawn)
// result 99.1

// query What growth appears in the records for this compound with NCI-H226 lung? `COc1cc2cc(OC(C)=O)c3cc4c(cc3c2c(OC)c1OC)OCO4`
// result 94.7

// query What growth appears in the records for this compound with NCI-H226 lung? Oc1ccc2c(c1)OCC1(O)Cc3cc(O)c(O)cc3C21 (stereo not drawn)
// result 98.2

// query What growth appears in the records for this compound with NCI-H226 lung? `O=[N+]([O-])c1ccc(Sc2ccncn2)c([N+](=O)[O-])c1`
// result 55.3

// query What growth appears in the records for this compound with NCI-H226 lung? `O=C(Nc1ccccc1)OCCc1ccccc1`
// result 103

// query What growth appears in the records for this compound with NCI-H226 lung? `O=C1c2ccccc2C(=O)c2c1ccc(C(=O)O)c2[N+](=O)[O-]`
// result 107

// query What growth appears in the records for this compound with NCI-H226 lung? CCC/C=C(\C)C(C)(C#N)C(=O)OCC (stereo not drawn)
// result 101

// query What growth appears in the records for this compound with NCI-H226 lung? `COC(=O)/C=C\C(=O)OC`
// result 114

----------
tested on: SK-MEL-2 melanoma; test: NCI-60 one-dose screen, 48 h (100 = growth as untreated, 0 = no growth, -100 = all killed); details: 10 µM
The panel holds about 83,000 compounds, 20% with a hit somewhere; the sample as a whole holds those more often.
Below, each of the compounds is paired with its reported growth value.
Unit % implied. Number only.

compound="CC1(C(N)=O)CCC(C(=O)O)C1(C)C (centres undefined)" test_value=104
compound=O=C(NC1CCCCC1)OCc1c(COC(=O)NC2CCCCC2)c(-c2ccc(Cl)c(Cl)c2)n2c1CCC2 test_value=-9.91
compound=CCCNc1ccc(C2=NCCCN2)cc1 test_value=102

// query Bench note: what growth did `Cc1ccc(Cl)cc1NC(=O)N(C)CCO` show?
// result 97.4

----------
system: CCRF-CEM leukemia; assay: NCI-60 one-dose screen, 48 h (100 = growth as untreated, 0 = no growth, -100 = all killed); conditions: 10 µM
This is part of a sample that, as a whole, favours compounds with a hit. Of some 83,000 tested, about 20% had one in any assay.
Property: growth (%)
Unit % implied. Number only.

Illustrative cases are given below, each with its answer.
compound=S=C(Nc1ccccc1)N1CCCCC1 property=growth test_value=102
compound=CCOC(=O)c1[nH]c(C)c(C(=O)O)c1C property=growth test_value=89.6
compound=Cc1ccc(/C=C2\SC(=S)N(c3ccc(F)cc3)C2=O)o1 property=growth test_value=89.2
compound=Cc1cc(C)cc(NCCC#N)c1 property=growth test_value=96.8
compound=Cc1cccc(CO)c1 property=growth test_value=110
compound="CC(=O)OCC1CCCO1 (configuration not stated)" property=growth test_value=107

// query Bench note: what growth did `COc1ccccc1N=Nc1c(O)ccc2cc(S(=O)(=O)O)ccc12` show?
// result 105

----------
Below, each of the compounds is paired with its reported growth value.
test system: ACHN renal; experiment: NCI-60 one-dose screen, 48 h (100 = growth as untreated, 0 = no growth, -100 = all killed); details: 10 µM
This is part of a sample that, as a whole, favours compounds with a hit. Of some 83,000 tested, about 20% had one in any assay.
Unit % implied. Number only.

Illustrative cases are given below, each with its answer.
compound=O=C1N(C[P+](c2ccccc2)(c2ccccc2)c2ccccc2)CCCN1C[P+](c1ccccc1)(c1ccccc1)c1ccccc1 unit_label=% test_value=97.1
compound=Cc1ccc(C)n1-c1ccsc1C(=O)NNC(=O)C(Cl)Cl unit_label=% test_value=104
compound="OC1CCCc2ccccc21 (stereo not drawn)" unit_label=% test_value=97.9
compound=N=c1c(C(=O)OCc2ccccc2)ncc(CCl)n1O unit_label=% test_value=94.6
compound=Cc1cccc(CO)c1 unit_label=% test_value=111

Consider the additional compound presented here.
// query Bench note: what growth did `COc1ccccc1N1CCN(C(=S)Nc2ccccc2)CC1` show?
// result 100

----------
tested on: DU-145 prostate; assay: NCI-60 one-dose screen, 48 h; conditions: 10 µM
About 83,000 compounds went through this panel and 20% of them were active in at least one assay; those are over-represented in the sample as a whole. Calls of active or inactive are those of the source. Rule for the calls: active = growth percent below 10; inactive = the rest.
Allowed answers: 1.0 for active, 0.0 for inactive

Check out these entries, answers already filled in.
compound="Cc1cc(C(O)(c2ccc(Nc3ccccc3)cc2)c2ccc(Nc3ccc(S(=O)(=O)O)cc3)cc2)ccc1N (configuration not stated)" assigned_class=0.0
compound=COc1cc(C(N)=O)cc(OC)c1OC assigned_class=0.0
compound=COc1ccccc1NC(=O)C1=C(C)NC(C)=C(C(=O)Nc2ccccc2OC)C1c1cccc([N+](=O)[O-])c1 assigned_class=0.0

// query Outcome? `c1csc(-c2cc(-c3cc(-c4cccs4)[nH]n3)n[nH]2)c1`
// result 0.0

// query Outcome? `COC(=O)Nc1nc2ccc(C(=O)c3cccs3)cc2[nH]1`
// result 1.0

// query Outcome? `CC1=CC(=O)c2ccccc2C1=O`
// result 0.0

// query Outcome? `O=C1C=CC(=O)N1c1ccc(I)cc1Cl`
// result 0.0
